These entries and their values trace back to patent US20240116985A1.

- Tested System: beta-catenin/TCF4 engagement (Homo sapiens, UniProt P35222)
- Construct: expressed in transfected cells; host or cells: HEK293
- Test Method Notes: Nano-BRET target engagement assay (B-cat-Halo & TCF4-Luc in HEK293 cells)
- Type: cell-based
- Cond: absolute IC50; read-out: NanoBRET Abs IC50
Entries and their IC50 values follow.
Answer format reminder: number followed by unit.

Tell me the measured IC50 of CC(=O)N1CCC[C@]12CC=CCCCC1(CCCC=CCCCOC(=O)N3CC[C@@](C(=O)N[C@@H](Cc4ccsc4)C(=O)N[C@@H](Cc4csc5ccccc45)C(=O)N[C@@H](CC(N)=O)C(=O)N[C@@H](CC(C)C)C(N)=O)(C3)NC(=O)[C@H](CC(C)C)NC(=O)[C@H](Cc3ccccc3)NC(=O)[C@H](C)NC(=O)[C@H](C)NC(=O)[C@H](Cc3cccc(C(=O)O)c3)NC(=O)[C@H](CC(=O)O)NC1=O)NC(=O)[C@H](CC(C)(C)C)NC(=O)[C@H](CC(=O)O)NC2=O (some centres unmarked) , please.
2 µM

Tell me the measured IC50 of CC(=O)N1CCC[C@]12CC=CCCCC1(CCCC=CCCCOC(=O)N3CC[C@@](C(=O)N[C@@H](Cc4ccccc4C(F)(F)F)C(=O)N[C@@H](Cc4csc5ccccc45)C(=O)N[C@@H](CCC(N)=O)C(N)=O)(C3)NC(=O)[C@H](CC(N)=O)NC(=O)[C@H](Cc3ccccc3)NC(=O)[C@H](C)NC(=O)[C@H](C)NC(=O)[C@H](CC(=O)O)NC(=O)[C@H](CC(=O)O)NC1=O)NC(=O)[C@H](CC(C)(C)C)NC(=O)[C@H](CC(=O)O)NC2=O (some centres unmarked) , please.
9.7 µM

###

- Test Method Notes: Solubility in PBS
- Format: physicochemical
Reported Endpoint: Solubility (µM)
A number alone suffices; assume µM.

Compound	Unit	Solubility
CC(=O)N1CCC[C@]12CC=CCCCC1(CCCC=CCCCOC(=O)N3CC[C@@](C(=O)N[C@@H](Cc4ccccc4Cl)C(=O)N[C@@H](Cc4csc5ccccc45)C(=O)N[C@@H](CCC(N)=O)C(N)=O)(C3)NC(=O)[C@H]([C@@H](C)O)NC(=O)[C@H](Cc3ccccc3)NC(=O)[C@H](C)NC(=O)[C@H](C)NC(=O)[C@H]([C@@H](C)O)NC(=O)[C@H](CC(=O)O)NC1=O)NC(=O)[C@H](CC1CCCCC1)NC(=O)[C@H](CC(=O)O)NC2=O (some centres unmarked) [I-1175]	µM	10

Tell me the measured Solubility of CC(=O)N1CCC[C@]12CC=CCCCC1(CCCC=CCCCCCC[C@@](C)(C(=O)N[C@@H](Cc3ccccc3)C(=O)N[C@@H](Cc3csc4ccccc34)C(=O)N[C@@H](CCC(N)=O)C(N)=O)NC(=O)[C@H](C(C)C)NC(=O)[C@H](Cc3ccccn3)NC(=O)[C@H](C)NC(=O)[C@H](C)NC(=O)[C@H](CCC(=O)O)NC(=O)[C@H](CC(=O)O)NC1=O)NC(=O)[C@H](C)NC(=O)[C@H](CC(=O)O)NC2=O (some centres unmarked) [I-387] , please.
48

###

- Tested System: full-length beta-Catenin (Uniprot ID P35222) (Homo sapiens, UniProt P35222)
- Construct: 10 nM full-length beta-Catenin (Uniprot ID P35222)
- Sequence (P35222 1-781): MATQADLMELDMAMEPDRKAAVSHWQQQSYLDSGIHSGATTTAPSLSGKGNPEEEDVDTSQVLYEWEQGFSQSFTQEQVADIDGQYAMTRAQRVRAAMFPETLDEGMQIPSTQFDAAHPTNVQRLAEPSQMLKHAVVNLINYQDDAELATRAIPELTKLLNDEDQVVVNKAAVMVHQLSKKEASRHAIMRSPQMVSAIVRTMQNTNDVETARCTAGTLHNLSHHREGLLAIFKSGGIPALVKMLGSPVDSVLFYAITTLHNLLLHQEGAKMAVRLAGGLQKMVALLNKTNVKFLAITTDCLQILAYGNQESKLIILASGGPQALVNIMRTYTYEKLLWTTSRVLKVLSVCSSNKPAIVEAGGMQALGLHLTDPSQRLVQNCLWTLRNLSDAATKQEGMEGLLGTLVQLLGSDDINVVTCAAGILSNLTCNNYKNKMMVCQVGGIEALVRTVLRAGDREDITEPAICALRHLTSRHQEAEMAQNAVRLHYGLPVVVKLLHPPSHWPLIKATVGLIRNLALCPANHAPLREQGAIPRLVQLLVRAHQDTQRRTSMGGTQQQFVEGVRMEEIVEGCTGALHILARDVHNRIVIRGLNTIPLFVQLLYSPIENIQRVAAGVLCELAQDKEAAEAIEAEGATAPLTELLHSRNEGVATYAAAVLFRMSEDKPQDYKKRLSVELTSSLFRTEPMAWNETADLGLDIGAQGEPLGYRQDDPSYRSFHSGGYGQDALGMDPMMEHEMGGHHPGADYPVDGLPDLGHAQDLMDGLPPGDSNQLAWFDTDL
- Test Method Notes: Fluorescence polarization IC50 (beta-catenin / 5FAM-TCF4 10-53 competition)
- Assay type: binding
- Cond: fluorescence polarization; read-out: beta-Catenin FP IC50
Reported Endpoint: IC50 (nM)
A number alone suffices; assume nM.

Tell me the measured IC50 of CC(=O)N1CCC[C@]12CC=CCCCCC1(CCCCC=CCOC(=O)N3CC[C@@](C(=O)N[C@@H](Cc4ccccc4C(F)(F)F)C(=O)N[C@@H](Cc4csc5ccccc45)C(=O)N[C@@H](CCC(N)=O)C(N)=O)(C3)NC(=O)[C@H](CC(C)C)NC(=O)[C@H](Cc3ccccc3)NC(=O)[C@H](C)NC(=O)[C@H](C)NC(=O)[C@H](Cc3cccc(C(=O)O)c3)NC(=O)[C@H](CC(=O)O)NC1=O)NC(=O)[C@H](CC(C)(C)C)NC(=O)[C@H](CC(=O)O)NC2=O (stereo partly shown) [I-2505] , please.
687
